- target-or-system: T1, cynomolgus CD3 (cynomolgus (Macaca fascicularis), UniProt Q95LI5 22-198; Q95LI8 22-171; Q95LI7 23-181)
- T1 construct: whole, on cells; composition of the 'mix' not defined; also called cynoCD3
- T1 sequence (Q95LI5 22-198, chain 1 of 3): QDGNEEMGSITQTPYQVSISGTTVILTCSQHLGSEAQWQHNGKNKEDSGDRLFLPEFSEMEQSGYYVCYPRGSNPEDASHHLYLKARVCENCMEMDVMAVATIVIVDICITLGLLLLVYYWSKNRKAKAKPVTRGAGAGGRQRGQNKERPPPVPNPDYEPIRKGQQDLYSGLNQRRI
- T1 sequence (Q95LI8 22-171, chain 2 of 3): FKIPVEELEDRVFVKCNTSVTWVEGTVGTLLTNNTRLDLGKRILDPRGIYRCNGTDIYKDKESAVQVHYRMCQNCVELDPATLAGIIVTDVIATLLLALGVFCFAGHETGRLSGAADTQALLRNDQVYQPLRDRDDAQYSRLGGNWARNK
- T1 sequence (Q95LI7 23-181, chain 3 of 3): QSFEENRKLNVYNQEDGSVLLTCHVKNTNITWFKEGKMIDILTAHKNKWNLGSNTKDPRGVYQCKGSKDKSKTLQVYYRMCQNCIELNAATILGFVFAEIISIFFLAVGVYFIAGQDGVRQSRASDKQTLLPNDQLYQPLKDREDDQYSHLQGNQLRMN
- protocol: FACS on 293T-cynoCD3mix cells
value-kind: pEC50
Convention used: pEC50 is expressed as -log10 of the molar concentration.

If you can, please state the reported pEC50 value of ch126A11A4 (antibody, V domains shown) VH: QVQLQQPGTELVKPGASVKLSCKASGYTFTSYWMHWVKQRPEQGLEWIGNINPSNGDTNYNEKFKSKATLTVDKASNTAYMQLSSLTSEDSAVYYCGRDRSSQYYFDYWGQGTTLTVSS VL: DIVMSQSPSSLAVSAGEKVTMSCKSSQSLLNSRTRKNYLAWYQQKPGQSPKLLIYWASTRESGVPDRFTGSGSGTDFTLTISSVQAEDLAVYFCKQSFILRTFGGGTKLEIK . 8.54

If you can, please state the reported pEC50 value of ch124E3D6 (antibody, V domains shown) VH: QVQLQQPGTELVKPGASVKLSCKASGYTFTSYWMHWVKQRPGQGLEWIGNINPSNGDTNYNEKFKSKATLTVDKSSSTAYMQLSSLTSEDSAVYYCARDRSSQYYFDYWGQGTTLTVSS VL: DIVMSQSPSSLAVSAGEKVTMSCKSSQSLLNSRTRKNYLAWYQQKPGQSPKLLIYWASTRESGVPDRFTGSGSGTDFTLTISSVQAEDLAVYYCKQSYNLRTFGGGTKLEIK . 8.58

Now for another entry.
If you can, please state the reported pEC50 value of BMK-B219 (antibody, V domains shown, benchmark anti-CD3 antibody; also called anti-CD3 antibody developed by JNJ (Johnson & Johnson)) VH: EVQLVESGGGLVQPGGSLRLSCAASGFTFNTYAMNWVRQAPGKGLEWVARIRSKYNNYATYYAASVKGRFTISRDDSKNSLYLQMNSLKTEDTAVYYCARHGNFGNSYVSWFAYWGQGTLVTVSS VL: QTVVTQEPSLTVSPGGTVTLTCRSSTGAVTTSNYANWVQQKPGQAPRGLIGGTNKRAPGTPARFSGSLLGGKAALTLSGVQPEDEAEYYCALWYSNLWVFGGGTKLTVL . 8.36
